Numbers sourced from PubChem BioAssay (NCI).

Give measured growth for each item. Keep answers brief.
Test system: NCI-H522 lung
TEST_DETAILS: NCI-60 one-dose screen, 48 h (100 = growth as untreated, 0 = no growth, -100 = all killed)
CONDITION_SET: 10 µM unless noted
Compounds without any hit were thinned out: in the full panel of roughly 83,000, 20% have a hit. The source made the active and inactive calls. How the source made its calls: active means growth percent below 10; inactive means the rest.

growth on NCI-H522 lung for `COc1ccc2[nH]c(O)c(/C=c3/ccc4c(c3)N=C(c3ccc(C(F)(F)F)cc3)N=4)c2c1` is 89.6% (inactive)

growth on NCI-H522 lung for `COc1ccc(OC)c(Nc2nc(-c3c(C)nc4sccn34)cs2)c1` is 78.6% (inactive)

growth on NCI-H522 lung for COc1cc(C2CC(c3ccc(Nc4ccnc5cc(Cl)ccc45)cc3)=NN2c2ccccc2)cc(OC)c1OC (stereo not given) is 53% (inactive)

growth on NCI-H522 lung for `[O-]/[N+](=C\c1ccccc1)CC1(O)CCCCC1` is 93.7% (inactive)

growth on NCI-H522 lung for COc1ccc(C(=O)C(CN(C)C)c2ccccc2)cc1 (stereo not given) is -73.9% (active)

growth on NCI-H522 lung for `COc1cc2c(cc1OCCCOc1cc3c(cc1OC)C(=O)N1CCC[C@H]1C=N3)C=CC(C)(C)O2` is 83.7% (inactive)

growth on NCI-H522 lung for Cc1ccc(S(=O)(=O)NC(CCC(=O)Nc2ccc(Cl)cc2)C(=O)Nc2ccc(Cl)cc2)cc1 (stereo not given) is -29.7% (active)

growth on NCI-H522 lung for O=C1OCC2=C1C(c1ccc(Cl)c(Cl)c1)c1cc3c(cc1N2CCO)CCC3 (stereo not given) is -14.8% (active)

growth on NCI-H522 lung for `CCCCn1c(-c2ccc(F)cc2)nc2cc(OC)c(OC)cc2c1=O` is 93.7% (inactive)

growth on NCI-H522 lung for `CCCc1n(Cc2ccc3ccccc3c2)c2ccccc2[n+]1Cc1ccc2ccccc2c1` is -60.2% (active)
